# System: THP-1 cells
# assay: Evaluation of cytotoxicity by the MTT method
# Format: cell-based
# conditions: concentration 1 × 10^−6 M; DMSO well = 100%
measurement_name: Cytotoxicity test: absorbance (570 nm, MTT) expressed as percentage

molecule	reported
O=C(CCCCCc1nc(-c2ccccc2)c(-c2ccccc2)o1)NO [Example 25]	83.6%
O=C(CCCCCc1ncc(-c2ccc(Br)cc2)s1)NO [Example 20]	97.6%
O=C(CCCCCc1nc(-c2ccccc2)c(-c2ccc(F)cc2)s1)NO [Example 8]	113.7%
O=C(CCCCCCc1nc(-c2ccccc2)c(-c2ccccc2)o1)NO [Example 24]	91.8%

---

# System: THP-1 cells
# assay: Evaluation of cytotoxicity by the MTT method
# Format: cell-based
# conditions: concentration 1 × 10^−7 M; DMSO well = 100%
measurement_name: Cytotoxicity test: absorbance (570 nm, MTT) expressed as percentage (%)

molecule	reported
O=C(CCCCCc1ncc(-c2ccc(Br)cc2)s1)NO [Example 20]	102.0
O=C(CCCCCc1nc(-c2ccccc2)c(-c2ccccc2)o1)NO [Example 25]	87.6
O=C(CCCCCCc1nc(-c2ccccc2)c(-c2ccccc2)o1)NO [Example 24]	88.1
O=C(CCCCCc1nc(-c2ccccc2)c(-c2ccc(F)cc2)s1)NO [Example 8]	106.7

---

Item-by-item account of Cytotoxicity test: absorbance (570 nm, MTT) expressed as percentage
# Tested on: THP-1 cells
# assay: Evaluation of cytotoxicity by the MTT method
# Assay type: cell-based
# conditions: concentration 1 × 10^−9 M (second column, as printed); DMSO well = 100%
# Description: Cytotoxicity was evaluated by the MTT method. […] The absorbances for the well to which the DMSO diluting liquid was added and the well to which no LPS was added are 100% and 0%, respectively, the absorbances for wells of different doses of test substances are expressed as percentages, and the results are shown in Table 4.
measurement_name: Cytotoxicity test: absorbance (570 nm, MTT) expressed as percentage (%)

compound	unit_symbol	reported
O=C(CCCCCc1ncc(-c2ccc(Br)cc2)s1)NO [Example 20]	%	104.0
O=C(CCCCCc1nc(-c2ccccc2)c(-c2ccccc2)o1)NO [Example 25]	%	91.9
O=C(CCCCCc1nc(-c2ccccc2)c(-c2ccc(F)cc2)s1)NO [Example 8]	%	105.3
O=C(CCCCCCc1nc(-c2ccccc2)c(-c2ccccc2)o1)NO [Example 24]	%	83.9

---

# Test system: THP-1 cells
# assay: Evaluation of cytotoxicity by the MTT method
# Type: cell-based
# conditions: concentration 1 × 10^−9 M (first column); DMSO well = 100%
Item-by-item account of Cytotoxicity test: absorbance (570 nm, MTT) expressed as percentage
measurement_name: Cytotoxicity test: absorbance (570 nm, MTT) expressed as percentage (%)

chemical_structure	reported
O=C(CCCCCc1nc(-c2ccccc2)c(-c2ccccc2)o1)NO	85.8
O=C(CCCCCCc1nc(-c2ccccc2)c(-c2ccccc2)o1)NO	96.4
O=C(CCCCCc1ncc(-c2ccc(Br)cc2)s1)NO	95.6
O=C(CCCCCc1nc(-c2ccccc2)c(-c2ccc(F)cc2)s1)NO	106.7

---

# Test system: THP-1 cells
# assay: Evaluation of cytotoxicity by the MTT method
# Type: cell-based
# conditions: concentration 1 × 10^−5 M; DMSO well = 100%
# Protocol: Cytotoxicity was evaluated by the MTT method. […] The absorbances for the well to which the DMSO diluting liquid was added and the well to which no LPS was added are 100% and 0%, respectively, the absorbances for wells of different doses of test substances are expressed as percentages, and the results are shown in Table 4.
measurement_name: Cytotoxicity test: absorbance (570 nm, MTT) expressed as percentage (%)

chemical_structure	reported
O=C(CCCCCc1nc(-c2ccccc2)c(-c2ccccc2)o1)NO	78.9
O=C(CCCCCc1nc(-c2ccccc2)c(-c2ccc(F)cc2)s1)NO	88.9
O=C(CCCCCCc1nc(-c2ccccc2)c(-c2ccccc2)o1)NO	83.8
O=C(CCCCCc1ncc(-c2ccc(Br)cc2)s1)NO	82.3
